// values below are IC50; system is C-X-C chemokine receptor type 4 (Homo sapiens)
Sequence (P61073 whole entry): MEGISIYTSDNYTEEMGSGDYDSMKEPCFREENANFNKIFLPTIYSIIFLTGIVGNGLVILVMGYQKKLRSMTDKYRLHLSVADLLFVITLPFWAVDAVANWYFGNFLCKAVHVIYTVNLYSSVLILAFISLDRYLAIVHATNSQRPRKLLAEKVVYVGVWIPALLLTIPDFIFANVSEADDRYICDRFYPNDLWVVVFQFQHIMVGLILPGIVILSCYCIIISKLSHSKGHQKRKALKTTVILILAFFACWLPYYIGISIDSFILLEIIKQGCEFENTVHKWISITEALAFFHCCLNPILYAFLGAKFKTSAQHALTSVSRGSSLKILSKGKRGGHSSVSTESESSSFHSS
Starred links: 1 amine or outer side, 2 acyl side, 3 side chain; linkers in the order of their positions; H or OH if unused. Non-standard residues stand in square brackets, D forms with d. Residues, ends and D or L forms follow the SMILES beside them. Groups on a side chain read outwards from the residue. *: point of attachment. X1 = C[C@H](C(=O)[*:2])N(CCCCCCNC(=N)NCCCCCCN[*:3])[*:1]; Propanoyl(3-PO3H2) = O=C(CCP(=O)(O)O)*; 2Nal = N[C@@H](Cc1ccc2ccccc2c1)C(=O)O; AEEA = NCCOCCOCC(=O)O
quantity-kind: IC50 (nM)

INSERT INTO measurements (molecule, measurement_target, numeric_value) VALUES
  ('CC(=O)NCCNC(=N)NCCCCCCN1C(=O)[C@@H](Cc2ccc(O)cc2)NC(=O)CNC(=O)[C@H](Cc2ccc3ccccc3c2)NC(=O)[C@H](CCCNC(=N)N)NC(=O)[C@H]1C [US20240293587, Compound P1]', 'C-X-C chemokine receptor type 4 (Homo sapiens)', 3.1),
  ('C[C@@H]1C(=O)N[C@@H](CCCNC(=N)N)C(=O)N[C@@H](Cc2ccc3ccccc3c2)C(=O)NCC(=O)N[C@H](Cc2ccc(O)cc2)C(=O)N1CCCCCCNC(=N)NCCCCCCNC(=O)COCCOCCNC(=O)COCCOCCNC(=O)CCP(=O)(O)O [US20240293587, Compound P5m] (cyclo([2Nal]G[dY][X1]([AEEA-AEEA-Propanoyl(3-PO3H2)])R))', 'C-X-C chemokine receptor type 4 (Homo sapiens)', 52),
  ('CC(=O)NC(=N)NCCCCCCN1C(=O)[C@@H](Cc2ccc(O)cc2)NC(=O)CNC(=O)[C@H](Cc2ccc3ccccc3c2)NC(=O)[C@H](CCCNC(=N)N)NC(=O)[C@H]1C [US20240293587, Compound P7]', 'C-X-C chemokine receptor type 4 (Homo sapiens)', 2.5);
